biological target: eIF1A without CTT (Homo sapiens); construct: His-bdSUMO (cleaved yes); made in house; host or cells: E. coli (BL-21); type: binding; details: summary table; fluorescence binding assay; read-out: IC50 concentration (µM), CTT truncation
Sequence (P47813 1-114 limits assumed): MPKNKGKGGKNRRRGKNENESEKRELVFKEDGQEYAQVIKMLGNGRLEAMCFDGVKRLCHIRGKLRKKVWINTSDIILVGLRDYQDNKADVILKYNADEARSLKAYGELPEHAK
ASSAY METRIC: IC50 (µM)
Number only, in µM; omit the unit.

Recorded results for 5 compounds are shown here.
>  <COMPOUND>
CN(C)CC1CCn2cc(c3ccccc32)C2=C(C(=O)NC2=O)c2cn(c3ccccc23)CCO1 (stereo not drawn)

>  <READOUT UNIT>
µM

>  <IC50>
12.4

$$$$
>  <COMPOUND>
O=C(COc1ccccc1[N+](=O)[O-])NCc1ccc(-c2ccc(Br)cc2)o1

>  <READOUT UNIT>
µM

>  <IC50>
30.2

$$$$
>  <COMPOUND>
COc1cccc(Nc2nc(-c3ccc(NC(C)=O)cc3)c(C)s2)c1

>  <READOUT UNIT>
µM

>  <IC50>
5.7

$$$$
>  <COMPOUND>
CCOc1cc(C(=O)Nc2ccc(Cl)c(-c3nc4ccccc4[nH]3)c2)cc(OCC)c1OCC

>  <READOUT UNIT>
µM

>  <IC50>
79.9

$$$$
>  <COMPOUND>
Cc1cc(-n2c(C)cc(-c3csc(N)n3)c2C)no1

>  <READOUT UNIT>
µM

>  <IC50>
35.4

$$$$

Entry under test: Cc1ccc(C(=O)c2cc(O)c(O)c([N+](=O)[O-])c2)cc1 . Its IC50 was 5.4
